EC50 values for the compounds below.
# study_system: recombinant human NR2F6 protein (Homo sapiens, UniProt P10588)
# Sequence (P10588 1-404): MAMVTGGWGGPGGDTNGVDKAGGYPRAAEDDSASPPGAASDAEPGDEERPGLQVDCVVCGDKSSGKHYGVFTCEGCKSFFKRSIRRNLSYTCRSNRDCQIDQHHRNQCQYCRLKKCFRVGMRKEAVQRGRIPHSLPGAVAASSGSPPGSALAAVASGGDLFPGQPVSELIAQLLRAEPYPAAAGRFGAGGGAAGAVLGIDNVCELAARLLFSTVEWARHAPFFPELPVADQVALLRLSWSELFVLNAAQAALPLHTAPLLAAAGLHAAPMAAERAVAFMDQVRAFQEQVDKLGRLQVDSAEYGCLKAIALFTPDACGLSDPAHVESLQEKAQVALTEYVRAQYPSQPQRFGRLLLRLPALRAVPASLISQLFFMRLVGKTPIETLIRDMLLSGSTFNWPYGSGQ
# experiment: Biochemical NR2F6 binding assay (EnSpire label-free)
# setup_conditions: label-free binding to immobilized purified recombinant human NR2F6; ligands 1 nM to 100 uM, 1% DMSO
# Procedure: Purified recombinant human NR2F6 protein was dissolved in immobilization buffer at pH 4.5 and then immobilized in EnSpire-LFB High-Sensitivity User-Activated Plates at the concentration of 50 μg/well plate and left in incubation for 16 h at 4° C. […] The final readings were taken over a period of 30 minutes. The label-free responses were measured as shifts in reflected wavelength and are expressed in picometers (pm). […]
Counter-ions that a name gives are not always drawn.

{"columns": ["compound", "study_system", "measure", "measured"],
 "data": [
  ["O=C(Nc1cccc(-c2cccnc2)c1)[C@@H]1CNC[C@H]1C1CCOCC1 (racemic) [Compound I-50, dihydrochloride]", "recombinant human NR2F6 protein (Homo sapiens, UniProt P10588)", "EC50", "> 50 µM"],
  ["O=C(Nc1cccc2cnccc12)C1=C(c2ccccc2)CNC1 [Compound I-1]", "recombinant human NR2F6 protein (Homo sapiens, UniProt P10588)", "EC50", "10 to 50 µM"],
  ["O=C(Nc1cccc(-c2cccnc2)c1)[C@@H]1CN(c2ccccc2)C[C@H]1c1ccccc1 (racemic) [Compound I-62]", "recombinant human NR2F6 protein (Homo sapiens, UniProt P10588)", "EC50", "< 1 µM"],
  ["O=C(Nc1cccc(-c2cccnc2)c1)[C@@H]1CNC[C@H]1c1ccccc1 (racemic) [Compound I-11]", "recombinant human NR2F6 protein (Homo sapiens, UniProt P10588)", "EC50", "1 to 10 µM"],
  ["O=C(Nc1cccc2cnccc12)[C@H]1CNC[C@H]1c1ccccc1 [Compound I-88, dihydrochloride]", "recombinant human NR2F6 protein (Homo sapiens, UniProt P10588)", "EC50", "1 to 10 µM"]
]}

**Q:** State EC50 on recombinant human NR2F6 protein (Homo sapiens, UniProt P10588). Entry: O=C(NC1CN(c2ccc(F)cc2)C1)[C@@H]1CNC[C@H]1c1ccccc1 [Compound I-118, hydrochloride]
**A:** < 1 µM

**Q:** Please report EC50 with recombinant human NR2F6 protein (Homo sapiens, UniProt P10588) for item O=C(NC1CCN(c2ccccc2)CC1)[C@@H]1CNC[C@H]1c1ccccc1 [Compound I-123, dihydrochloride] .
**A:** 1 to 10 µM
